- Assay System: mAb BO2C11 (recloned as a human/mouse chimeric antibody with mouse IgG2a constant chains)
- Assay Name: cyclic peptide microarray incubated with BO2C11
Where no end group is shown, it is not given here.
Output label 1 for rank of binding signal (01 = strongest) not less than 6 rank; output label 0 otherwise.

Binder	Category
VLGCEAQDLY (also: circularized on the microarray) [peptide 04 of epitope02 (BO2C11 array), SEQ ID NO: 31]	label 0
GCDLNSC (not fully specified (bridges); printed as --------GCDLNSC---; cysteine pairing not given here; also: circularized on the microarray) [peptide 03 of epitope01 (BO2C11 array), SEQ ID NO: 18]	label 0
ELMGCDLNSCSMP (cysteine pairing not given here; also: circularized on the microarray) [peptide 30 of epitope01 (BO2C11 array), SEQ ID NO: 29]	label 1

Record LNSCSMP (also: circularized on the microarray) [peptide 15 of epitope01 (BO2C11 array), SEQ ID NO: 24] ; criterion: rank of binding signal (01 = strongest) no lower than 6 rank. Met? label 1
